# Test system: NCI-H522 lung
# method.description: NCI tumour cell line growth inhibition, 48 h; in the data active = GI50 below about 0.43 µM; inactive = the rest
One label from this list, please: active, inactive

Check the results log: what was the call for COC(=O)[C@H](Cc1c[nH]c2ccccc12)NC(=O)[C@@H](OC)[C@@H]1Cc2cc3cc(OC4CC(OC5CC(O)C(O)C(C)O5)C(O)C(C)O4)c(C)c(O)c3c(O)c2C(=O)[C@H]1OC1CC(OC2CC(OC3CC(C)(O)C(O)C(C)O3)C(O)C(C)O2)C(O)C(C)O1 (some centres undefined) ? active

Look up the recorded call for COc1cc2c3c(n(CCNCCCNCCn4c5c(c6cc(OC)c(OC)cc6c4=O)C(=O)c4ccccc4-5)c(=O)c2cc1OC)-c1ccccc1C3=O in this test. active

Please indicate how the test categorized COc1cc2c3c(n(C)c(=O)c2cc1OC)-c1cc2c(cc1/C3=C\CNCCCN)OCO2 . active

I would be grateful if you could indicate the recorded call for CC(=O)O.[Au].c1ccc([PH+](c2ccccc2)c2ccccc2)cc1 . inactive

# outcome recorded in this test, key = CC1(C)N=C(N)N=C(N)N1c1ccc(OCc2ccc(S(=O)(=O)F)c(Cl)c2)c(Cl)c1 inactive

Assay outcome for Cc1ccc2[nH]c(C(=O)NN3C(=O)C(C)SC34CCCC(C)C4)c(-c3ccccc3)c2c1 (centres undefined) : what was it? inactive

How was COc1cc2c3c(n(CCCCOC(=O)C(Cl)(Cl)Cl)c(=O)c2cc1OC)-c1cc2c(cc1C3=O)OCO2 classified in this test? inactive

GET /call?item= COc1cc(NS(=O)(=O)c2ccc(-c3cnc(C4CC4)o3)cc2)ccc1F returns the recorded outcome of this test. active

Recorded call for COc1ccccc1Cn1cc2c(c1-c1ccccc1)CCc1cnoc1-2 ? active

Per the assay record, what outcome was assigned to c1cc[c]([Pb]([c]2ccccc2)[c]2ccccc2)cc1 ? inactive

Hi team, can someone confirm the assay call for Cc1cc(O)c(C(C)(C)C)cc1Sc1cc(C(C)(C)C)c(O)cc1C ? inactive

Called result for O=C(/C=C\n1cnc(-c2cc(C(F)(F)F)cc(C(F)(F)F)c2)n1)NNc1cnccn1 active

Returns: the outcome recorded for COc1cc2c(c(OC)c1OC)C(=O)[C@@H]1c3ccc([N+](=O)[O-])cc3C(=O)N(CCCBr)[C@H]21 in this assay. inactive

How was COc1ccc2nc3cc(Cl)ccc3c(NCCN)c2c1 classified in this test? inactive

---

# System: SF-539 CNS
# method.description: NCI tumour cell line growth inhibition, 48 h
measurement.type: TGI

Report TGI, nothing else, for this molecule: CNc1nc2n(CCO)c(-c3ccccc3)c(-c3ccccc3)nc-2c(=O)n1 > 50 µM

Give TGI for COc1ccc(-n2cc(-c3cc(OC)c(OC)c(OC)c3)[nH]c2=O)cc1Cl > 100 µM

Quote TGI reported for COc1cc2c3c(n(CCCCOC(=O)C(Cl)(Cl)Cl)c(=O)c2cc1OC)-c1cc2c(cc1C3=O)OCO2 please. > 100 µM

Determine from records and report TGI for NNc1nncc2n[nH]nc12 > 100 µM

Return reported TGI. Input molecule: CNc1nc(N)c(N=O)c(Nc2ccc(Br)cc2)n1 > 100 µM

Name the recorded TGI of the item CN1C(=O)c2ccccc2NC(=O)C12O[C@@H]2c1cccc(O)c1 (some centres undefined) in your answer. > 100 µM

Name the recorded TGI of the molecule listed here: O=S1(=O)N(CCNc2nccc(-c3c(-c4cccc(O)c4)nc4sccn34)n2)CCN1Cc1ccccc1 > 50 µM

Give me measured TGI, please, for this molecule: CC(=O)N[C@@H](Cc1ccc(O)cn1)C(=O)NCc1cccc(Cl)c1 > 100 µM

Give me measured TGI, please, for this molecule: C=C[C@H]1C[C@@H]2C[C@@H]3[C@H]4C/C=C\C(=O)NCCCC5NC(=O)C(=C(O)/C=C/[C@@H]4CC(=O)[C@H]3[C@@H]2[C@H]1C)C5=O (some centres undefined) 0.666 µM
